B1: Azoarcus group I ribozyme (parent)
chain: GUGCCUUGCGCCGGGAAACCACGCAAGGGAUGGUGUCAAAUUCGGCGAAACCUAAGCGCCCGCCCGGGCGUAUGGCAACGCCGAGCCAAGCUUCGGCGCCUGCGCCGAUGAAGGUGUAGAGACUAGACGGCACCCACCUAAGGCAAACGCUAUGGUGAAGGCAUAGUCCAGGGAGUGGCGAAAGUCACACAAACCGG

Variants of: B1
assay text: reverse-splicing fitness (ratio to wild type); higher = more active; in vitro selection; Mg2+ level not given
readout label: reverse-splicing fitness

In the examples that follow, each entry is paired with its recorded reverse-splicing fitness.
variant_spec="C82G A111U A120U A145G C150G U176C" reported_value=0.00861
variant_spec="C82A A120C A145G U176G" reported_value=0.00861

Give reverse-splicing fitness for each listed item.
1. C82U A111G A120U A145C C150A U176G
2. C82A A111U A120C C150A U176C
3. C82A A111G A120U A145C C150G C169G U176C

1: 0.002; 2: 0.0239; 3: 0.00289

Give reverse-splicing fitness for each listed item.
1. C82A A111G A120C C150U C169G U176C
2. C82U A111G A120G A145U U176G
3. C82A A111U A145G C150U C169U U176G

[0.0203, 0.00443, 0.00683]

Give reverse-splicing fitness for each listed item.
1. C82U A111G A120U A145G C169G U176C
2. C82G A111G A120C
3. A111G A120C A145C C150A C169A U176G
4. A111U A120G C150U C169U U176A
5. C82U A120U C150G C169G U176G

1. 0.00294
2. 0.0886
3. 0.00443
4. 0.0401
5. 0.0022

Give reverse-splicing fitness for each listed item.
1. C82A A111U C169G U176A
2. C82U A120U A145G C169G U176G
3. A111C A120C A145U C150U C169G U176C
4. A111G A120G C150G C169G U176A

1. 0.0162
2. 0.00136
3. 0.0132
4. 0.0075

Give reverse-splicing fitness for each listed item.
1. A120G A145U C150G C169G U176C
2. C82A A111C A120U A145U C150U C169U U176G
3. C82A A111U C150A C169A U176C

[0.011, 0.00288, 0.0197]

Could you share which reverse-splicing fitness value was measured for C82U A111G A120U A145U C150A C169A ?
0.00228
